biological target: T1, cynomolgus monkey CD22 on B cells of cynomolgus PBMCs (cynomolgus monkey); test: flow cytometry; Alexa Fluor 647-labelled antibody, cynomolgus PBMCs
T1 construct: whole, on cells; also called cynomolgus CD22; Cyno CD22
MEASURE: CD22: CD20+/CD20- (ratio of median fluorescent intensity)
Remember to put the unit after the number in your answer.

BINDER | ENDPOINT VALUE
TNT86 (antibody, human IgG1, kappa, V domains shown) VH: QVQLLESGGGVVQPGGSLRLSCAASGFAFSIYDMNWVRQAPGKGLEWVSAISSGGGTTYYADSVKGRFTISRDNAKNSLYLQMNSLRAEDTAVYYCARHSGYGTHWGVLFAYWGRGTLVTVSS VL: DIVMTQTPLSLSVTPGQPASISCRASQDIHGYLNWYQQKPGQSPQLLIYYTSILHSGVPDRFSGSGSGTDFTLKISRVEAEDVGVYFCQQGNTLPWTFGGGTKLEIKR | 10.9 fold
TNT69 (antibody, human IgG1, kappa, V domains shown) VH: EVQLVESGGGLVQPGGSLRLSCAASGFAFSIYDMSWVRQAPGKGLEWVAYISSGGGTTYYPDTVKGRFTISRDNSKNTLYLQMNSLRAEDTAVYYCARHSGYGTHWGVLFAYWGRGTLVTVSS VL: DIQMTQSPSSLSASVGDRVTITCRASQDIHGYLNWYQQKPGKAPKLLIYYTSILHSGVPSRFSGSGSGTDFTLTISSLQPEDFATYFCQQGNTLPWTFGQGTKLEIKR | 14.9 fold
TNT85 (antibody, human IgG1, kappa, V domains shown) VH: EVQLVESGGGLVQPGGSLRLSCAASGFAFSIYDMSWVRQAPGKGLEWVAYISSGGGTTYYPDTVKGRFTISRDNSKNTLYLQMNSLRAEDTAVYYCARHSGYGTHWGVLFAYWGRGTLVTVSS VL: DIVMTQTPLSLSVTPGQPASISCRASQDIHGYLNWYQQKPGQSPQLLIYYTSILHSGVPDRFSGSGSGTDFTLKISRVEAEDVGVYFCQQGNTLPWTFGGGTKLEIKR | 9.6 fold
TNT73 (antibody, human IgG1, kappa, V domains shown) VH: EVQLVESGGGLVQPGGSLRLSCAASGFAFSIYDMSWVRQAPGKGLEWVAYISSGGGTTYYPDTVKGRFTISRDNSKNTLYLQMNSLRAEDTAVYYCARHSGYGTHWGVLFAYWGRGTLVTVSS VL: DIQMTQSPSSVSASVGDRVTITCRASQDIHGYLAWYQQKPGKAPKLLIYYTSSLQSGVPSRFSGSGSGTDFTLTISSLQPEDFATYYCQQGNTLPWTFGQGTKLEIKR | 1.9 fold
TNT88 (antibody, human IgG1, kappa, V domains shown) VH: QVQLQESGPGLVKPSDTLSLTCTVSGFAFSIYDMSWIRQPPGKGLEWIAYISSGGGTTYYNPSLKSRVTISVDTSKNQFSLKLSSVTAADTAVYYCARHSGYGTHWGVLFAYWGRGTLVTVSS VL: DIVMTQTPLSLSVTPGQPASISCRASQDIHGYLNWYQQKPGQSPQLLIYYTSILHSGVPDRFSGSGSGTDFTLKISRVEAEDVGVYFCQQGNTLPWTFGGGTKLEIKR | 14.7 fold

Which CD22: CD20+/CD20- (ratio of median fluorescent intensity) is reported for this binder? TNT77 (antibody, human IgG1, kappa, V domains shown) VH: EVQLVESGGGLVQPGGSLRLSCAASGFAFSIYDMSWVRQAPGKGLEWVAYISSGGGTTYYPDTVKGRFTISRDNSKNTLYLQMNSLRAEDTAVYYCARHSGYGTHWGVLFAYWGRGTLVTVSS VL: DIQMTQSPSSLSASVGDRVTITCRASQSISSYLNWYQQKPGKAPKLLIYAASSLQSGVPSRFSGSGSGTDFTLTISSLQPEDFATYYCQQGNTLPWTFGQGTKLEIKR
2.6 fold

Which CD22: CD20+/CD20- (ratio of median fluorescent intensity) is reported for this binder? TNT75 (antibody, human IgG1, kappa, V domains shown) VH: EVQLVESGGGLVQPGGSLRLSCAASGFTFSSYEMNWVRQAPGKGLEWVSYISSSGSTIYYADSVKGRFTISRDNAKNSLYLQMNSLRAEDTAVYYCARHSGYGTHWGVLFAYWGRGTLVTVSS VL: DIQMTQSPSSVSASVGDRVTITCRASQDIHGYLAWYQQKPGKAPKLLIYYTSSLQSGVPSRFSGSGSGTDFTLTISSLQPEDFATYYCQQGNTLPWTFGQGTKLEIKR
6.7 fold

Given TNT83 (antibody, human IgG1, kappa, V domains shown) VH: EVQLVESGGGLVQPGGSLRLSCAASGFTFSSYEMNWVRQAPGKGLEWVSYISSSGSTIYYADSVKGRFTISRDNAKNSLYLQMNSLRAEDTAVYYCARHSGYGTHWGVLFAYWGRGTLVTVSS VL: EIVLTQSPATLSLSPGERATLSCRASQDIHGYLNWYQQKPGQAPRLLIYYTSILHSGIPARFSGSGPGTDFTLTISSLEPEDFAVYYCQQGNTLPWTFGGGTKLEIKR , state its recorded CD22: CD20+/CD20- (ratio of median fluorescent intensity).
10.8 fold

Any idea what its CD22: CD20+/CD20- (ratio of median fluorescent intensity) is? The binder is TNT82 (antibody, human IgG1, kappa, V domains shown) VH: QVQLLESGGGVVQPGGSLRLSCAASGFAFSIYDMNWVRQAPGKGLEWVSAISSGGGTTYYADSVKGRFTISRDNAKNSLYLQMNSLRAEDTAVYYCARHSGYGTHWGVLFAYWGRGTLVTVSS VL: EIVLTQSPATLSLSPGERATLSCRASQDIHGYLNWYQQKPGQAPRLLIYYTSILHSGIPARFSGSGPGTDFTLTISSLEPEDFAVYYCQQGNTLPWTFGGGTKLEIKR
12.6 fold

Consider the binder shown here: TNT78 (antibody, human IgG1, kappa, V domains shown) VH: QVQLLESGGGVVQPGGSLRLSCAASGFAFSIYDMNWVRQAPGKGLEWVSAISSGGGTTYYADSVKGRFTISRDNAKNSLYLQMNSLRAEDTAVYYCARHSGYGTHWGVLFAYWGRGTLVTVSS VL: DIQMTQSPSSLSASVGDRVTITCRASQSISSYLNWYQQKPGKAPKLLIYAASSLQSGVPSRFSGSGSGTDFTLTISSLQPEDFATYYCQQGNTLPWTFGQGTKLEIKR What is its recorded CD22: CD20+/CD20- (ratio of median fluorescent intensity)?
1.2 fold
